The measurements presented in this section are drawn from PubChem BioAssay AID1963425.

Test system: 323965-272-R-J2-PDC complex spheroid growth, % test/control
Test: Anticancer human tumor 323965-272-R-J2-PDC patient-derived pancreatic carcinoma cell line growth inhibition [Asc]
Conditions: second compound 0.0316 µM; first compound 0.0949 µM; stronger effect = lower value
Result Type: viability, T/C (%)
Write the value in % as a bare number.

Prompt: Specify reported viability, T/C for the compound shown: Cc1nc(N2CCC3(CC2)COC(C)C3N)c(CO)nc1Sc1ccnc(N)c1Cl (centres undefined) + CNC(C)C(=O)NC1CN(S(=O)(=O)c2cccc(S(=O)(=O)N3CCC4CCC(C(=O)NC(c5ccccc5)c5ccccc5)N4C(=O)C(NC(=O)C(C)NC)C3)c2)CCC2CCC(C(=O)NC(c3ccccc3)c3ccccc3)N2C1=O
Response: 80

Prompt: Give me measured viability, T/C, please, for this compound: NC(=O)C(=Cn1cnc(-c2cc(C(F)(F)F)cc(C(F)(F)F)c2)n1)c1cncnc1 + CNC(C)C(=O)NC1CN(S(=O)(=O)c2cccc(S(=O)(=O)N3CCC4CCC(C(=O)NC(c5ccccc5)c5ccccc5)N4C(=O)C(NC(=O)C(C)NC)C3)c2)CCC2CCC(C(=O)NC(c3ccccc3)c3ccccc3)N2C1=O
Response: 74.5

Prompt: For the compound CCN1C(C(=O)NC23CCC(C(=O)O)(CC2)CC3)C(c2cccc(Cl)c2F)C2(C(=O)Nc3cc(Cl)ccc32)C12CCCCC2 (centres undefined) + CNC(C)C(=O)NC1CN(S(=O)(=O)c2cccc(S(=O)(=O)N3CCC4CCC(C(=O)NC(c5ccccc5)c5ccccc5)N4C(=O)C(NC(=O)C(C)NC)C3)c2)CCC2CCC(C(=O)NC(c3ccccc3)c3ccccc3)N2C1=O , give its reported viability, T/C.
Response: 105

Prompt: Retrieve viability, T/C measured for NC(=O)C(=Cn1cnc(-c2cc(C(F)(F)F)cc(C(F)(F)F)c2)n1)c1cncnc1 + Cc1c(S(C)(=O)=O)c(-c2cc(F)cc(N3CCN(c4ccc(NS(=O)(=O)c5ccc(NC(CCN6CCC(C(=O)OCCCP(=O)(O)O)CC6)CSc6ccccc6)c(S(=O)(=O)C(F)(F)F)c5)cc4)CC3)c2)c(-c2ccc(Cl)cc2)n1C(C)C and print it.
Response: 81.5

----------
Could you please report measured viability, T/C for the items listed next?
System: 323965-272-R-J2-PDC complex spheroid growth, % test/control
Assay: Anticancer human tumor 323965-272-R-J2-PDC cell line growth inhibition [Asc];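 further: compound exposure lasted 7 days starting three days after spheroid seeding; 100% = DMSO vehicle control wells with viability set relative to vehicle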
Conditions: second compound 0.01 µM; first compound 1 µM; stronger effect = lower value
# unit: % | format: bare number

Prompt: For 323965-272-R-J2-PDC complex spheroid growth, % test/control, give viability, T/C of the listed molecule: C=C(F)C(=O)N1CCN(c2nc(OCC3CCCN3C)nc3c2CCN(c2cccc4cccc(Cl)c24)C3)CC1CC#N (stereo not drawn) + CNC(C)C(=O)NC1CN(S(=O)(=O)c2cccc(S(=O)(=O)N3CCC4CCC(C(=O)NC(c5ccccc5)c5ccccc5)N4C(=O)C(NC(=O)C(C)NC)C3)c2)CCC2CCC(C(=O)NC(c3ccccc3)c3ccccc3)N2C1=O
Response: 56.6

Prompt: Given COc1c(OCCCN2CCOCC2)ccc2c3n(c(=NC(=O)c4cnc(N)nc4)nc12)CCN3 + CNC(C)C(=O)NC1CN(S(=O)(=O)c2cccc(S(=O)(=O)N3CCC4CCC(C(=O)NC(c5ccccc5)c5ccccc5)N4C(=O)C(NC(=O)C(C)NC)C3)c2)CCC2CCC(C(=O)NC(c3ccccc3)c3ccccc3)N2C1=O , report its viability, T/C on 323965-272-R-J2-PDC complex spheroid growth, % test/control.
Response: 26

Prompt: # lookup: 323965-272-R-J2-PDC complex spheroid growth, % test/control viability, T/C, key = O=C(c1ccc(F)c(F)c1Nc1ccc(I)cc1F)N1CC(O)([C@@H]2CCCCN2)C1 + CNC(C)C(=O)NC1CN(S(=O)(=O)c2cccc(S(=O)(=O)N3CCC4CCC(C(=O)NC(c5ccccc5)c5ccccc5)N4C(=O)C(NC(=O)C(C)NC)C3)c2)CCC2CCC(C(=O)NC(c3ccccc3)c3ccccc3)N2C1=O
Response: 13.2
